Biological target: T1, factor VIIa-tissue factor complex (human recombinant factor VIIa with recombinant soluble human tissue factor) (human, UniProt P08709 61-466; P13726 33-251, limits assumed)
T1 construct: The complex was formed from 50 nM factor VIIa and 100 nM soluble tissue factor in 5 mM CaCl2; Factor VIIa is itself a two-chain enzyme; also called FVIIa-TF; VIIa-TF
T1 sequence (P08709 61-466 limits assumed, chain 1 of 2): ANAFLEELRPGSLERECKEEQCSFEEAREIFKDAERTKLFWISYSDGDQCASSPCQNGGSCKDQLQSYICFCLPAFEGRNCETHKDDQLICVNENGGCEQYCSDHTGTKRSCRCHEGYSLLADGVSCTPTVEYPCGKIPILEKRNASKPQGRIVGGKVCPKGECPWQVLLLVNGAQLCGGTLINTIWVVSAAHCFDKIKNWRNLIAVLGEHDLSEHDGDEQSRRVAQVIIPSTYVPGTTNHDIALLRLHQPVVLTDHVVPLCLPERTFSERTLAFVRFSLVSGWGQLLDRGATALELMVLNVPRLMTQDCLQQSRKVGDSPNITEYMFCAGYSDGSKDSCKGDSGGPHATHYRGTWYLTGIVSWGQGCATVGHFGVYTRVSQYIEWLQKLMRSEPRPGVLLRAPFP
T1 sequence (P13726 33-251 limits assumed, chain 2 of 2): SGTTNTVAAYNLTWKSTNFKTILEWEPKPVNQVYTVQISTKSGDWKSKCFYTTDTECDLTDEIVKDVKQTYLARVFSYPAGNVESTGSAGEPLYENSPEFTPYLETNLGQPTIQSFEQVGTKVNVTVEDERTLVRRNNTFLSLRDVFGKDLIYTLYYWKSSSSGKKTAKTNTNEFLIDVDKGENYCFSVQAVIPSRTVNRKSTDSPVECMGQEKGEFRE
Assay: chromogenic (S-2288) amidolytic inhibition assay, FVIIa 50 nM / soluble TF 100 nM
reported metric: pKi
The quantity pKi is defined as the negative base-10 logarithm of the molar concentration.

Input: Could you please provide reported pKi for R24Q KD1 (other, Point mutant of His-tagged KD1, KD1 numbering; also called R24Q (R15Q); not shown: N-terminal decahistidine-tag leader and enterokinase cleavage site from pET19b) DAAQEPTGNNAEICLLPLDYGPCQALLLRYYYDRYTQSCRQFLYGGCEGNANNFYTWEACDDACWRIEKVPKV ? Thanks!
Output: 4.25

Input: Annotate the binder L26Q KD1 (other, Point mutant of His-tagged KD1, KD1 numbering; also called L26Q (L17Q); not shown: N-terminal decahistidine-tag leader and enterokinase cleavage site from pET19b) DAAQEPTGNNAEICLLPLDYGPCRAQLLRYYYDRYTQSCRQFLYGGCEGNANNFYTWEACDDACWRIEKVPKV with its measured pKi.
Output: 4.27

Continuing:
Input: For R29D KD1 (other, Point mutant of His-tagged KD1, KD1 numbering; also called R29D (R20D); not shown: N-terminal decahistidine-tag leader and enterokinase cleavage site from pET19b) DAAQEPTGNNAEICLLPLDYGPCRALLLDYYYDRYTQSCRQFLYGGCEGNANNFYTWEACDDACWRIEKVPKV , write its pKi.
Output: 4.35
